ASSAYED SYSTEM: T1, TFAM-ΔC26 (C-tail deletion) (UniProt Q00059 43-220)
T1 sequence: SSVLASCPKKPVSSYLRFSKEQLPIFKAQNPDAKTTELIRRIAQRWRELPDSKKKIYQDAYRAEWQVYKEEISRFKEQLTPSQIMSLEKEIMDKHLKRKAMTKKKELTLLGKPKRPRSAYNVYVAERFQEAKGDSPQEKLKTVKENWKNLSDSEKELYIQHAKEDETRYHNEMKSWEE
EXPERIMENT: fluorescence anisotropy; 10 mM Mg acetate; 50 mM Tris acetate pH 7.5, 100 mM Na glutamate, 50 mM NaCl, 10 mM Mg acetate, 0.5 mM TCEP, 0.01% Tween 20, 0.1 mg/ml BSA, 25 °C; 5 nM DNA, 0-75 nM TFAM
STATED CONDITIONS: protein: recombinant; tags: SUMO fusion, cleaved; label: fluorescein (FITC) at 3' end of template strand; blunt
pKd: −log10 of the molar value.
TEST READOUT: pKd

{"BINDER": "HSP (-41 to -12), fluorescein (dsDNA) DNA 1: CACACCGCTGCTAACCCCATACCCCGAACC DNA 2: GGTTCGGGGTATGGGGTTAGCAGCGGTGTG", "pKd": "~7.00"}

Entry NS (non-specific), fluorescein (dsDNA) DNA 1: TAGCAGGAGCAGGAACAGGATGAACAAGCA DNA 2: TGCTTGTTCATCCTGTTCCTGCTCCTGCTA : reported pKd = ?
~7.00
